Consider the following compounds and their measured max activity readings.
# methodSummary: compound activity on host-cell Toxoplasma growth – dose response (AID 1259420);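 also: host cells were HeLa; final incubation lasted 72 hours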
# conditionInfo: Toxoplasma gondii growth in host cells, no IFN-gamma; at 19.5 µM unless noted
The whole screen tested about 1,000 compounds, of which about 250 (25%) were called active. Inconclusive results (about 31%) are left out. Only a sample is shown. Entries with a potency or affinity are not part of this list.

Solved cases below.
compound	max activity
CCCNC(=O)c1cc(-c2ccn(CC3CC3)n2)n2ccccc12	-19.1% [at 10 µM] (inactive)
Cn1nc2c(c1C(=O)Nc1ccc(N3CCCCC3)c(F)c1)CCCC2	25.8% [at 10 µM] (inactive)
CC[C@H](C(=O)N1CCCC[C@H]1C(=O)O[C@H](CCc1ccc(OC)c(OC)c1)c1cccc(OCC(=O)NCCNC(=O)COc2cccc([C@@H](CCc3ccc(OC)c(OC)c3)OC(=O)[C@@H]3CCCCN3C(=O)[C@@H](CC)c3cc(OC)c(OC)c(OC)c3)c2)c1)c1cc(OC)c(OC)c(OC)c1	-10.8% [at 5 µM] (inactive)
N#Cc1ccc(-c2ccc([C@@H]3[C@H]4CNC[C@@H]3N4Cc3ccc4c(c3)OCO4)cc2)cc1	27.3% [at 10 µM] (inactive)
O=C1CC2C(CCN2Cc2ccc(F)cc2)N1CCN1CCOCC1 (centres undefined)	-8.01% [at 5 µM] (inactive)
COc1cccc(-c2ccc(C3[C@H]4CNC[C@@H]3N4CC3CCCCC3)cc2)c1 (some centres undefined)	15.2% (inactive)

Specify measured max activity for CCOc1ccc(-c2nc(CN(c3ccc(OC)cc3)S(=O)(=O)c3cccs3)c(C)o2)cc1 .
18.6% [at 10 µM] (inactive)

Specify measured max activity for O=C(Cc1cccnc1)N1CC(=O)N2[C@@H](CO)[C@H](c3ccc(C#CC4CCCCC4)cc3)[C@@H]2C1 .
-4.29% [at 10 µM] (inactive)

Specify measured max activity for Cc1ccc(S(=O)(=O)N2CC[C@@H]3[C@H](CO)Nc4ccc(-c5cccc(C(=O)N(C)C)c5)cc4[C@@H]32)cc1 .
15.5% (inactive)
